Cited source for all entries: patent US6545131B1

- measurement-target: Plasmin (Homo sapiens)
- Construct: purchased Calbiochem
- Sequence (P00747 581-810 limits assumed, species assumed): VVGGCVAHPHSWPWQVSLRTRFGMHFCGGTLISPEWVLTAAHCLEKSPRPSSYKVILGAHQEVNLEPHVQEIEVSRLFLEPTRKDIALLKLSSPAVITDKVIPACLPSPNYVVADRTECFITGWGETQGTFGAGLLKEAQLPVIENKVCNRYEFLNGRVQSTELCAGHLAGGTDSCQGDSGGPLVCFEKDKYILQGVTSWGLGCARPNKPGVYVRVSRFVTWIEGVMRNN
- Sequence (P00747 97-580 partner limits assumed, species assumed): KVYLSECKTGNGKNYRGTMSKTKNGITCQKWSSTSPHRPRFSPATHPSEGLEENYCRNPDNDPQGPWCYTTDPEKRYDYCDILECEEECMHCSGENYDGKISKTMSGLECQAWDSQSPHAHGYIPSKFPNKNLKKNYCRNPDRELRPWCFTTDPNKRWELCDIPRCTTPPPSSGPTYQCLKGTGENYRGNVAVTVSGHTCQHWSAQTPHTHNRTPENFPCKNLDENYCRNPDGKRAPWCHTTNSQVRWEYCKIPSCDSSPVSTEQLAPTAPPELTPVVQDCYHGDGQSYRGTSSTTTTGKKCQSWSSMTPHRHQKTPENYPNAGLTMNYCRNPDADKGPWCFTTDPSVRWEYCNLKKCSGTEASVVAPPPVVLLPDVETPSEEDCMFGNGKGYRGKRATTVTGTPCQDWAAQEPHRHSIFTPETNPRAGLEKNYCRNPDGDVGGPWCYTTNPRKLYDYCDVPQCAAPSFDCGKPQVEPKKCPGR
- assay-notes: Peptide-AMC cleavage by purified extracellular protease
- Format: biochemical
- condition-context: 0.2 mM substrate, PSA assay buffer pH 7.8
Starred links: 1 amine or outer side, 2 acyl side, 3 side chain; linkers in the order of their positions; H or OH if unused. Residues, ends and D or L forms follow the SMILES beside them. *: point of attachment. AMC = Cc1cc(=O)oc2cc(N*)ccc12; Morpholide = C1CN(*)CCO1; CO = O=C([*:1])[*:2]
outcome-measure: Picomoles of substrate cleaved/minute/200 pmoles of indicated protease: Plasmin

[[record]]
compound = "CC[C@H](C)[C@H](NC(=O)[C@H](CCCCN)NC(=O)[C@H](CC(N)=O)NC(=O)[C@H](CCC(=O)O)NC(=O)N1CCOCC1)C(=O)N[C@@H](CO)C(=O)N[C@@H](Cc1ccc(O)cc1)C(=O)N[C@@H](CCC(N)=O)C(=O)Nc1ccc2c(C)cc(=O)oc2c1 [ENKISYQ, Glu-Asn-Lys-Ile-Ser-Tyr-Gln] ({Morpholide-CO}-ENKISYQ-{AMC})"
result = "0.6 picomoles/minute/200 pmoles pr"

